Recorded values, source patent US20260184697A1.

Target: EZH1/SUZ/EED (Homo sapiens, UniProt O75530+Q15022+Q92800)
Sequence (Q92800 2-747 limits assumed): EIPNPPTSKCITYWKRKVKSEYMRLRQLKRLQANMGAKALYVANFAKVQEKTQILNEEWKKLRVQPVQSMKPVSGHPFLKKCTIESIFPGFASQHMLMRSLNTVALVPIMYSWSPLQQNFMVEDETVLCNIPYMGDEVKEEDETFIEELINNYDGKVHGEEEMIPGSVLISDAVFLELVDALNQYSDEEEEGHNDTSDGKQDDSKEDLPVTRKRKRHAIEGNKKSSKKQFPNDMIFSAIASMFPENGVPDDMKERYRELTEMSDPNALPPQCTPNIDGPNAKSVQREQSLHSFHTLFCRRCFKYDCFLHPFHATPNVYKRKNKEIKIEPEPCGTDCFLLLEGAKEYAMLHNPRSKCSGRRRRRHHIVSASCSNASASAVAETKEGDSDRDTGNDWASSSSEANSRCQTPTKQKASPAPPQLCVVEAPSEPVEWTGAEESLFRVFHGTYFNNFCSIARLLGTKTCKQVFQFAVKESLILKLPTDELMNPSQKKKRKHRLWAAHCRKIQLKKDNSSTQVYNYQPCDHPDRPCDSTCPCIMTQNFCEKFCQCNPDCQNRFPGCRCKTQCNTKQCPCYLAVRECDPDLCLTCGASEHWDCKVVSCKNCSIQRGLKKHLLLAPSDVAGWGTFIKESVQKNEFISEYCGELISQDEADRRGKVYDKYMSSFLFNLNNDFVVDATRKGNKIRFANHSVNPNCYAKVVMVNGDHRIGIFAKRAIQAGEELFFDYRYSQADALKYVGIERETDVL
Sequence (Q15022 2-739 partner limits assumed): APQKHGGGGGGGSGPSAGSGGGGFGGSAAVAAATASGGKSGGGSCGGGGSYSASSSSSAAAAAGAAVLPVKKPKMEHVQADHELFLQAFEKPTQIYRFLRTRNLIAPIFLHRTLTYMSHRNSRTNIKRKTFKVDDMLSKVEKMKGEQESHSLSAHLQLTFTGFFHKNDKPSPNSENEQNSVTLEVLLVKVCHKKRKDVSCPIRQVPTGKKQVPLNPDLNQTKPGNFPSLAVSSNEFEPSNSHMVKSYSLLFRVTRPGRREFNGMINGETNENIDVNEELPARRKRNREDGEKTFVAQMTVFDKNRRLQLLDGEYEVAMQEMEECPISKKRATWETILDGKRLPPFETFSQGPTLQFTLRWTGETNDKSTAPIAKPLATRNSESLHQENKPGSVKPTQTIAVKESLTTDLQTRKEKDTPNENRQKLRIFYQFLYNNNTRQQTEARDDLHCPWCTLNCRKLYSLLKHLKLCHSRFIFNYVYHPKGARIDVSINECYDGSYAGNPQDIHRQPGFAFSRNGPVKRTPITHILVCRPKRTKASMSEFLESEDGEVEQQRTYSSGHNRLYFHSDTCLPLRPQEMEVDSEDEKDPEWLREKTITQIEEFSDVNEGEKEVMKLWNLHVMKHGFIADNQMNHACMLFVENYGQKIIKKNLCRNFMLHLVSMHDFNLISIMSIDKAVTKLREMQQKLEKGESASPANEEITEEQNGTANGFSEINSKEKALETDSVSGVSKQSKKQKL
Sequence (O75530 2-441 partner limits assumed): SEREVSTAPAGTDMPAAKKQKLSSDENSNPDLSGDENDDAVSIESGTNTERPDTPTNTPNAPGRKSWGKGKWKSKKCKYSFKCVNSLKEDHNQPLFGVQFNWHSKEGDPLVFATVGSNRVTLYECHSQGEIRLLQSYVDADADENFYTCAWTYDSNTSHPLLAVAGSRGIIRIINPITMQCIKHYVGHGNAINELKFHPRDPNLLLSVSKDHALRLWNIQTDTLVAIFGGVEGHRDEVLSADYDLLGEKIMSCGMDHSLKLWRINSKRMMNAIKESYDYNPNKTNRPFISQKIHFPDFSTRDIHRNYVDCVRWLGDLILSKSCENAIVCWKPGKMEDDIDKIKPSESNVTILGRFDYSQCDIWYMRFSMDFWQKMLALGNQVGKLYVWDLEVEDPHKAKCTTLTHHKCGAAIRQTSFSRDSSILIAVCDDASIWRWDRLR
Assay: Inhibitory effect on EZH1 by the MTase-Glo method (Test Example 1)
Conditions: EZH1/SUZ/EED 25 nM, H3 peptide 10 μM, SAM 3 μM, 30° C. 3 h, read-out: Test Example 1 WT EZH1 IC50
measuredMetric: IC50 (nM)

> print(dat)
                                   compound  measuredvalue
1  Cc1cc(C)c(CNC(=O)c2cc(Cl)c3c(c2C)O[C@@H]([C@H]2CC[C@H](N4CC5COCC5C4)CC2)CO3)c(=O)[nH]1 (stereo partly shown)            199
2  CSc1cc(C)[nH]c(=O)c1CNC(=O)c1cc(Cl)c2c(c1C)O[C@@H]([C@H]1CC[C@@H](N3CC4COCC4C3)CC1)CO2 (stereo partly shown)            3.7
3  CSc1cc(C)[nH]c(=O)c1CNC(=O)c1cc(Cl)c2c(c1C)O[C@@H]([C@H]1CC[C@H](N3CC(CF)C3)CC1)CO2            7.4

[A] Cc1cc(C2CC2)c(CNC(=O)c2cc(Cl)c3c(c2C)O[C@@H]([C@H]2CC[C@@H](N(C)C)CC2)CO3)c(=O)[nH]1
[B] COc1cc(C)[nH]c(=O)c1CNC(=O)c1cc(Cl)c2c(c1C)O[C@@H]([C@H]1CC[C@H](N3CC(OCCF)C3)CC1)CO2
[C] Cc1cc(C)c(CNC(=O)c2cc(Cl)c3c(c2C)OC(C2CCC(N4CC(F)C4)CC2)CO3)c(=O)[nH]1 (single isomer, unassigned) [Compound 71]
Hi! Can you put these in order of IC50, lowest number first? Your reply should list the labels following the order given in the request.
B, A, C

----------
Target: EZH1/SUZ/EED (Homo sapiens, UniProt O75530+Q15022+Q92800)
Experiment: Inhibitory effect on EZH1 by the MTase-Glo method (Test Example 1)
Details: EZH1/SUZ/EED 25 nM, H3 peptide 10 μM, SAM 3 μM, 30° C. 3 h, read-out: Test Example 1 WT EZH1 IC50
measuredMetric: IC50 (nM)

> print(dat)
                       smilesrepresentation  measuredvalue
1  COCCN1CCC([C@H]2COc3c(Cl)cc(C(=O)NCc4c(SC)cc(C)[nH]c4=O)c(C)c3O2)CC1           16.5

[1] COC1CN([C@H]2CC[C@@H]([C@H]3COc4c(Cl)cc(C(=O)NCc5c(Cl)cc(C)[nH]c5=O)c(C)c4O3)CC2)C1
[2] CSc1cc(C)[nH]c(=O)c1CNC(=O)c1cc(Cl)c2c(c1C)O[C@@H]([C@H]1CC[C@H](NC3(CF)COC3)CC1)CO2
Given the two records 1 and 2 , choose the one whose IC50 value is lower. Record your answer as the label of the chosen record.
2

----------
Target: EZH1/SUZ/EED (Homo sapiens, UniProt O75530+Q15022+Q92800)
Assay: Inhibitory effect on EZH1 by the MTase-Glo method (Test Example 1)
Conditions: EZH1/SUZ/EED 25 nM, H3 peptide 10 μM, SAM 3 μM, 30° C. 3 h, read-out: Test Example 1 WT EZH1 IC50
Method: The compound was dissolved in DMSO, and the compound was serially diluted using ECHO665 and transferred to a 384-well reaction plate (Corning, 3824). […] After incubation, read with BMG PHERAStar. The luminescence signals obtained by positive control (maximum signal control) and negative control (minimum signal control) were normalized to obtain the inhibition rate of different concentrations of compounds. […]
measuredMetric: IC50 (nM)

[a] CSc1cc(C)[nH]c(=O)c1CNC(=O)c1cc(Cl)c2c(c1C)O[C@@H]([C@H]1CC[C@@H](N3CC4(COC4)C3)CC1)CO2 [Compound 28]
[b] COc1cc(C)[nH]c(=O)c1CNC(=O)c1cc(Cl)c2c(c1C)O[C@@H]([C@H]1CC[C@@H](N3CC4C(C3)C4OC)CC1)CO2 (stereo partly shown) [Compound 115]
[c] COc1cc(C)[nH]c(=O)c1CNC(=O)c1cc(Cl)c2c(c1C)O[C@@H]([C@H]1CC[C@@H](N3CC4(CC4)C3)CC1)CO2 [Compound 111]
Please list these in order of increasing IC50. Thank you! Note for the reader: the ranking is given by listing the labels in the order requested.
a, c, b
(a: 9.4 nM, c: 27.3 nM, b: 74.8 nM)

[I] Cc1cc(C)c(CNC(=O)c2cc(Cl)c3c(c2C)OC(C2CCC(NC4CC(F)C4)CC2)CO3)c(=O)[nH]1 (single isomer, unassigned) [Compound 65]
[II] COc1cc(C)[nH]c(=O)c1CNC(=O)c1cc(Cl)c2c(c1C)O[C@@H]([C@H]1CC[C@@H](N3CC(OCCF)C3)CC1)CO2 [Compound 109]
// which entry reports the smaller IC50, I or II ? Please reply using the label of the selected record.
II
(II: 3.8 nM, I: 641 nM)
